System: recombinant NL4-3 virus (nef section replaced with Renilla luciferase gene) in MT-2 cells
procedure.summary: HIV cell culture assay (antiviral activity, luciferase readout)
Assay type: cell-based
setup.conditions: NL43, MT-2 cells infected for 4-5 days with recombinant NL4-3 Renilla luciferase virus
Doc: threshold 0.1 nM (exclusive). Items with EC50 beneath it return Fulfilled; others return Not fulfilled.

For orientation, consider the following solved cases.
| compound | category |
| --- | --- |
| CC(C)Oc1ccc2c(=O)n(-c3ccc(Cl)c4c(NS(C)(=O)=O)nn(C)c34)c([C@H](Cc3cc(F)cc(F)c3)NC(=O)Cn3nc(C(F)F)c4c3C(F)(F)[C@@H]3C[C@H]43)nc2c1 | Not fulfilled |
| CC(C)(C)c1ccc2c(=O)n(-c3ccc(Cl)c4c(NS(=O)(=O)C5CC5)nn(CC(F)F)c34)c([C@H](Cc3cc(F)cc(F)c3)NC(=O)Cn3nc(C(F)F)c4c3C(F)(F)[C@@H]3C[C@H]43)nc2c1 | Not fulfilled |
| CC(C)Cc1ccc2c(=O)n(-c3ccc(Cl)c4c(NS(C)(=O)=O)nn(C)c34)c([C@H](Cc3cc(F)cc(F)c3)NC(=O)Cn3nc(C(F)F)c4c3C(F)(F)[C@@H]3C[C@H]43)nc2c1 | Not fulfilled |
| COc1cnc2c(=O)n(-c3ccc(Cl)c4c(NS(C)(=O)=O)nn(C)c34)c([C@H](Cc3cc(F)cc(F)c3)NC(=O)Cn3nc(C(F)F)c4c3C(F)(F)C3CC43)nc2c1 (stereo in doubt) | Fulfilled |

## Input Please state whether EC50 is below 0.1 nM for CCC(F)(F)c1ccc2c(=O)n(-c3ccc(Cl)c4c(NS(C)(=O)=O)nn(C)c34)c([C@H](Cc3cc(F)cc(F)c3)NC(=O)Cn3nc(C(F)F)c4c3C(F)(F)[C@@H]3C[C@H]43)nc2c1
## Output Not fulfilled

###

Tested on: recombinant NL4-3 virus (nef section replaced with Renilla luciferase gene) in MT-2 cells
procedure.summary: HIV cell culture assay (antiviral activity, luciferase readout)
Format: cell-based
setup.conditions: NL43, MT-2 cells infected for 4-5 days with recombinant NL4-3 Renilla luciferase virus
endpoint.name: log10 of EC50 (log10 of the value in nM)
All values: base-10 log of EC50 in nM.

| compound | data.value |
| --- | --- |
| CCCc1ccc2c(=O)n(-c3ccc(Cl)c4c(NS(C)(=O)=O)nn(C)c34)c([C@H](Cc3cc(F)cc(F)c3)NC(=O)Cn3nc(C(F)F)c4c3C(F)(F)[C@@H]3C[C@H]43)nc2c1 | -1.20 |

## Input Request the reported log10 of EC50 associated with Cn1nc(NS(C)(=O)=O)c2cccc(-n3c([C@H](Cc4cc(F)cc(F)c4)NC(=O)Cn4nc(C(F)F)c5c4C(F)(F)[C@@H]4C[C@H]54)nc4cc(C5CCCC5)ccc4c3=O)c21
## Output 0.10

## Input What do we get for Cn1nc(NS(C)(=O)=O)c2c(Cl)ccc(-n3c([C@H](Cc4cc(F)cc(F)c4)NC(=O)Cn4nc(C(F)F)c5c4C(F)(F)[C@@H]4C[C@H]54)nc4cc(Br)ccc4c3=O)c21 ?
## Output -1.34

## Input Again, but for Cc1ccc2c(=O)n(-c3ccc(Cl)c4c(NS(C)(=O)=O)nn(C)c34)c([C@H](Cc3cc(F)cc(F)c3)NC(=O)Cn3nc(C(F)F)c4c3C(F)(F)[C@@H]3C[C@H]43)nc2c1
## Output -1.15

## Input Subsequent entry: COc1nc2nc([C@H](Cc3cc(F)cc(F)c3)NC(=O)Cn3nc(C(F)F)c4c3C(F)(F)C3CC43)n(-c3ccc(Cl)c4c(NS(C)(=O)=O)nn(C)c34)c(=O)c2cc1Cl (stereo in doubt)
## Output -1.36

## Input Also check CS(=O)(=O)Nc1nn(CC(F)F)c2c(-n3c([C@H](Cc4cc(F)cc(F)c4)NC(=O)Cn4nc(C(F)F)c5c4C(F)(F)[C@@H]4C[C@H]54)nc4cc(C5CC5)ccc4c3=O)ccc(Cl)c12
## Output -1.01

###

Tested on: recombinant NL4-3 virus (nef section replaced with Renilla luciferase gene) in MT-2 cells
procedure.summary: HIV cell culture assay (antiviral activity, luciferase readout)
Format: cell-based
setup.conditions: NL43, MT-2 cells infected for 4-5 days with recombinant NL4-3 Renilla luciferase virus
compounds and their reported pEC50
Lab note: report pEC50 as minus log10 of the concentration in molar units, number only.

| entry.smiles | measurement.target | data.value |
| --- | --- | --- |
| Cn1nc(NS(C)(=O)=O)c2c(Cl)ccc(-n3c([C@H](Cc4cc(F)cc(F)c4)NC(=O)Cn4nc(C(F)F)c5c4C(F)(F)[C@@H]4C[C@H]54)nc4cc(C5CCCC5)ccc4c3=O)c21 | recombinant NL4-3 virus (nef section replaced with Renilla luciferase gene) in MT-2 cells | 9.55 |

## Input What pEC50 value was documented for this compound, COc1ccc2c(=O)n(-c3ccc(Cl)c4c(NS(C)(=O)=O)nn(C)c34)c([C@H](Cc3cc(F)cc(F)c3)NC(=O)Cn3ccc(C4CC4)n3)nc2c1 ?
## Output 9.46

###

System: recombinant NL4-3 virus (nef section replaced with Renilla luciferase gene) in MT-2 cells
procedure.summary: HIV cell culture assay (antiviral activity, luciferase readout)
Assay type: cell-based
setup.conditions: NL43, MT-2 cells infected for 4-5 days with recombinant NL4-3 Renilla luciferase virus
endpoint.name: EC50 (nM)
Provide only the numeric value, understood in nM.

Reference set, count: 2
| entry.smiles | measurement.target | data.value |
| --- | --- | --- |
| Cn1nc(NS(C)(=O)=O)c2c(Cl)ccc(-n3c([C@H](Cc4cc(F)cc(F)c4)NC(=O)Cn4nc(C(F)F)c5c4C(F)(F)[C@@H]4C[C@H]54)nc4cc(CCC(F)(F)F)ccc4c3=O)c21 | recombinant NL4-3 virus (nef section replaced with Renilla luciferase gene) in MT-2 cells | 0.122 |
| CC(C)COc1ccc2c(=O)n(-c3ccc(Cl)c4c(NS(C)(=O)=O)nn(C)c34)c([C@H](Cc3cc(F)cc(F)c3)NC(=O)Cn3nc(C(F)F)c4c3C(F)(F)[C@@H]3C[C@H]43)nc2c1 | recombinant NL4-3 virus (nef section replaced with Renilla luciferase gene) in MT-2 cells | 0.109 |

# context switch: different compound, same EC50
## Input Param item = Cn1nc(NS(C)(=O)=O)c2c(Cl)ccc(-n3c([C@H](Cc4cc(F)cc(F)c4)NC(=O)Cn4nc(C(F)F)c5c4C(F)(F)[C@@H]4C[C@H]54)nc4cc(C5CCCCC5)ccc4c3=O)c21 ; retrieve measured EC50.
## Output 0.597
